The following molecules are listed with their measured IC50 values.
Tested on: MDA-MB-468
Test: Antiproliferative activity against human MDA-MB-468 cells assessed as reduction in cell growth incubated for 72 hrs by MTT assay
Assay type: functional, cell-based
Details: MDA-MB-468, 72 h
Give the quantity in µM, number only.

>>> datavalue("O=c1cc(-c2ccccc2)[nH]c2ccc3c(ccn3CC3CC3)c12")
0.02

Which IC50 is reported for this molecule? "CCOC(=O)CCn1ccc2c3c(=O)cc(-c4ccccc4)[nH]c3ccc21"
0.005

---

System: HL-60
Experiment: Antiproliferative activity against human HL-60 cells assessed as reduction in cell growth incubated for 48 hrs by MTT assay
Format: functional, cell-based
Details: HL-60, 48 h
valueType: pIC50
Recall that pIC50 is obtained by taking minus log10 of the concentration measured in molar.

Which pIC50 is reported for this molecule? COc1cc2c(cc1CC=C(C)C)C(=O)NC(c1ccc(O)cc1)N2 (stereo unspecified)
6.60
